- Assay Notes: AUC (infinity) in cynomolgus monkey at 1.5 mg/kg, po
- Type: ADME, organism-based, Macaca fascicularis
- Design: time infinity, dose 1.5 mg/kg, route oral
- Condition Description: plasma
Test Readout: AUC(0-inf) (ng·h/mL)
Just the number in ng·h/mL, nothing appended.

Would you kindly share the measured AUC(0-inf) for O=C(NOCCO)c1cc(CN2OCCCC2=O)c(F)c(F)c1Nc1ccc(I)cc1F [RO-4987655] ?
2200

---

- Assay Notes: Cmax in cynomolgus monkey at 1.5 mg/kg, po
- Assay type: ADME, organism-based, Macaca fascicularis
- Design: dose 1.5 mg/kg, route oral
- Condition Description: in vivo
Test Readout: Cmax (ng/mL)
Write down the numeric answer in ng/mL and omit the unit.

# input compound: O=C(NOCCO)c1cc(CN2OCCCC2=O)c(F)c(F)c1Nc1ccc(I)cc1F ; wanted: its Cmax
400

---

- Assay Notes: Toxicity in human HT-29 cells xenografted BALB/c nu/nu mouse assessed as maximum tolerable dose
- Assay type: organism-based
- Condition Description: in vivo
Measured MTD of individual entries
Output spec: scalar in mg/kg, unitless text.

Worked examples, 5 compounds total:
In [3]: df
Out[3]:
                                  structure  unit_of_measure  number
0  O=C(NOCCO)c1cc(COCCO)c(F)c(F)c1Nc1ccc(I)cc1F            mg/kg      50
1  O=C(NOCCO)c1cc(CNOCCO)c(F)c(F)c1Nc1ccc(I)cc1F            mg/kg     100
2  O=C(NOCCO)c1cc(/C=N\OCCO)c(F)c(F)c1Nc1ccc(I)cc1F            mg/kg    12.5
3  O=C(NOCCO)c1cc(CN2OCCC2=O)c(F)c(F)c1Nc1ccc(I)cc1F            mg/kg    12.5
4  O=C(NOCCO)c1cc(/C=N/OCCO)c(F)c(F)c1Nc1ccc(I)cc1F            mg/kg     100

Return reported MTD; argument: CON(Cc1cc(C(=O)NOCCO)c(Nc2ccc(I)cc2F)c(F)c1F)C(C)=O
25

---

- Assay Notes: Solubility in 50 mM phosphate buffer at pH 6.5 after 2 hrs
- Type: physicochemical
Test Readout: solubility at 2 h (µM)
Quick note: give the figure in µM, leave out the unit.

Past entries and their recorded results:
                                  structure  number
0  O=C(NOCCO)c1cc(CN2OCCOC2=O)c(F)c(F)c1Nc1ccc(I)cc1F      57
1  O=C(NOCCO)c1cc(CN2CCCC2=O)c(F)c(F)c1Nc1ccc(I)cc1F     156

Now turn to the next compound.
Suppose we examine the compound CON(Cc1cc(C(=O)NOCCO)c(Nc2ccc(I)cc2F)c(F)c1F)C(C)=O ; what solubility at 2 h value has been reported?
116

---

- System: QG-56
- Assay Notes: Cytotoxicity against human QG56 cells after 4 days
- Format: functional, cell-based
- Condition Description: QG-56, 96 h
Listing of recorded IC50 by entry.
Lab book: enter the figure in nM, no units written.

Consider the reported IC50 for these compounds:
>>> df
                                  structure  test_readout  unit_of_measure  number
0  CC(C)(O)CO/N=C/c1cc(C(=O)NOCCO)c(Nc2ccc(I)cc2F)c(F)c1F          IC50               nM     128
1  C#Cc1ccc(Nc2c(C(=O)NOCCO)cc(/C=N/OCCO)c(F)c2F)c(F)c1          IC50               nM     160

Reported IC50 for O=C(NOCCO)c1cc(/C=N/OCCO)c(F)c(F)c1Nc1ccc(I)cc1F : what is it?
160

# credit: ChEMBL document CHEMBL1681704
